Hello, the source for this data is paper PMC11054487, in case you need it.

target: human serum albumin (HSA) (Homo sapiens); construct: purchased Sigma-Aldrich; assay: Presaturation equilibrium dialysis, fraction unbound in human serum albumin solution; type: in vitro ADME; details: 4% human serum albumin in PBS, 5 μM PFAS, value (CV)
Sequence (P02768 25-609): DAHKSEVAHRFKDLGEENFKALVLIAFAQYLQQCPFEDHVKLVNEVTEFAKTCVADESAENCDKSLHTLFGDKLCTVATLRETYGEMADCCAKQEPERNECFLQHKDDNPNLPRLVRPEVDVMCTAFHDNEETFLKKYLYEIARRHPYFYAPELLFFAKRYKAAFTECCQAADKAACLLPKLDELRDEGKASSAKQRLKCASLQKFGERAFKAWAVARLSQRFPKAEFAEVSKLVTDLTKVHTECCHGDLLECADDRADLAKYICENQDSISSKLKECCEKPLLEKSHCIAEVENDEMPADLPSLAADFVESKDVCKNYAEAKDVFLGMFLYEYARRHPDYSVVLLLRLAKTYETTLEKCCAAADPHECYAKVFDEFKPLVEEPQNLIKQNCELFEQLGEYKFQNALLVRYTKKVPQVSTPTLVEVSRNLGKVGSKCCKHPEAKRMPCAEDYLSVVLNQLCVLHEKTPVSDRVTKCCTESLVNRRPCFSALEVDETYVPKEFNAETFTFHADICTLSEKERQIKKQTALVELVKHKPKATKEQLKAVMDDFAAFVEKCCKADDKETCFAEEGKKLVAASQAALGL
Can you tell me Fraction Unbound (fu) and Coefficient of Variance (CV), HSA for the items I'm about to list?

Answered cases to consult:
compound	observed
O=C(O)C(F)(F)C(F)(F)C(F)(F)C(F)(F)F [PFPA, perfluoropentanoic acid]	0.0933(6%)
O=S(=O)(O)C(F)(F)C(F)(F)C(F)(F)C(F)(F)C(F)(F)C(F)(F)C(F)(F)C(F)(F)F [PFOS, perfluorooctanesulfonic acid]	0.000524(13%)
O=S(=O)(O)C(F)(F)C(F)(F)C(F)(F)C(F)(F)F [PFBS, perfluorobutanesulfonic acid]	0.056(5%)
O=S(=O)(O)CCC(F)(F)C(F)(F)C(F)(F)C(F)(F)C(F)(F)C(F)(F)F [6:2 FtS, 6:2 fluorotelomer sulfonate]	0.00746(0%)
O=C(O)C(F)(F)C(F)(F)C(F)(F)F [PFBA, Perfluorobutanoic acid]	0.15(5%)
O=C(O)C(F)(F)C(F)(F)C(F)(F)C(F)(F)C(F)(F)F [PFHxA, perfluorohexanoic acid]	0.0336(7%)
O=C(O)C(F)(F)C(F)(F)C(F)(F)C(F)(F)C(F)(F)C(F)(F)C(F)(F)C(F)(F)C(F)(F)C(F)(F)F [PFUDA, perfluoroundecanoic acid]	0.000417(23%)

Problem: Give the measured Fraction Unbound (fu) and Coefficient of Variance (CV), HSA of O=C(O)C(F)(F)C(F)(F)C(F)(F)C(F)(F)C(F)(F)C(F)(F)C(F)(F)C(F)(F)C(F)(F)F [PFDA, perfluorodecanoic acid] .
Solution: 0.000584(8%)

====

Assay: Presaturation equilibrium dialysis, fraction unbound in human plasma
Type: in vitro ADME
Conditions: human, 5 μM PFAS, 37 °C, value (CV), read-out: Fraction Unbound (fu) and Coefficient of Variance (CV), Human Plasma
Method: Each PFAS:matrix combination was assessed in quadruplicate. The injection volume for each sample was 5 µL.
assay endpoint: fraction unbound at 18 h, 5 µM
One number for each entry.

smiles record	fraction unbound at 18 h, 5 µM
O=C(O)C(F)(F)C(F)(F)C(F)(F)C(F)(F)C(F)(F)C(F)(F)C(F)(F)F	0.0025

Would you mind giving fraction unbound at 18 h, 5 µM for every compound in the list below?
1. O=S(=O)(O)C(F)(F)C(F)(F)C(F)(F)C(F)(F)C(F)(F)C(F)(F)F
2. O=C(O)C(F)(F)C(F)(F)C(F)(F)C(F)(F)C(F)(F)C(F)(F)C(F)(F)C(F)(F)C(F)(F)C(F)(F)C(F)(F)F

Solution:
1. 0.000695
2. 0.000105

====

Experiment: Presaturation equilibrium dialysis, fraction unbound in C57BL/6 mouse plasma
Type: in vitro ADME
Conditions: 5 μM PFAS, 37 °C, value (CV), read-out: Fraction Unbound (fu) and Coefficient of Variance (CV), C57BL/6 Plasma
Description: Each PFAS:matrix combination was assessed in quadruplicate. The injection volume for each sample was 5 µL.
assay endpoint: fraction unbound at 18 h, 5 µM
Answers are plain numbers.

Answered cases to consult:
compound	fraction unbound at 18 h, 5 µM
O=S(=O)(O)C(F)(F)C(F)(F)C(F)(F)C(F)(F)C(F)(F)C(F)(F)F [PFHxS, perfluorohexanesulfonic acid]	0.013
O=C(O)C(F)(F)C(F)(F)C(F)(F)C(F)(F)C(F)(F)C(F)(F)C(F)(F)C(F)(F)C(F)(F)C(F)(F)C(F)(F)F [PFDoDA, perfluorododecanoic acid]	0.000205

Here's the next entry for you.
Problem: Give the measured fraction unbound at 18 h, 5 µM of O=C(O)C(F)(F)C(F)(F)C(F)(F)C(F)(F)C(F)(F)C(F)(F)C(F)(F)F [PFOA, perfluorooctanoic acid] .
Solution: 0.0142
